Some compounds, each annotated with its measured log10 IC50.
- Experimental Target: ATX enzyme in rat plasma (Rattus norvegicus, UniProt Q64610)
- Construct: Whole blood was collected from rats and anticoagulated with heparin; from tissue; host or cells: rat plasma (heparin)
- Assay Summary: Inhibition of activity of ATX enzyme in rat plasma (LPA18:2 formation, LC-MSMS)
- Format: biochemical
- Measurement Setup: rat plasma, 37° C., 3 h, LPA18:2 formation; read-out: IC50, inhibitory effect on activity of ATX enzyme in rat plasma
For clarity, the numbers are log10 values of IC50 expressed in nM.

Worked set:
>>> reading("O=C(c1cnc(NC2Cc3cc(F)c(F)cc3C2)nc1)N1CCC(COCc2c[nH]nn2)CC1 [Compound I-8]")
2.13
>>> reading("O=C(c1cnc(NC2Cc3ccc(F)cc3C2)nc1)N1CCC(COCc2c[nH]nn2)CC1 (centres unmarked) [Compound I-7]")
1.17
>>> reading("CC1CN(C(=O)c2cnc(NC3Cc4ccccc4C3)nc2)CCC1COCc1c[nH]nn1 (centres unmarked) [Compound I-4]")
1.51
>>> reading("CC1CC(COCc2c[nH]nn2)CCN1C(=O)c1cnc(NC2Cc3ccccc3C2)nc1 (centres unmarked) [Compound I-5]")
1.03
>>> reading("O=C(c1cnc(NC2Cc3ccccc3C2)nc1)N1CCC(COCc2cn[nH]n2)CC1 [Compound I-1]")
0.81

Prompt: Need log10 IC50, item O=C(c1cnc(NC2Cc3ccc(F)cc3C2)nc1)N1CC2(CC(OCc3c[nH]nn3)C2)C1 (centres unmarked) [Compound I-10]
Response: 0.68

Prompt: Need log10 IC50, item O=C(c1cnc(NC2Cc3ccccc3C2)nc1)N1CCC(COCc2c[nH]nn2)C(F)C1 (centres unmarked) [Compound I-6]
Response: 1.36

Prompt: Need log10 IC50, item O=C(c1cnc(NC2Cc3ccccc3C2)nc1)N1CC2(CC(OCc3c[nH]nn3)C2)C1 [Compound I-9]
Response: 0.45

Recorded values, source patent US20220204479A1.
